Below, each of the binders is paired with its reported fold repression value.
# target.or.system: T1, ECF37_2513
# T1 chain: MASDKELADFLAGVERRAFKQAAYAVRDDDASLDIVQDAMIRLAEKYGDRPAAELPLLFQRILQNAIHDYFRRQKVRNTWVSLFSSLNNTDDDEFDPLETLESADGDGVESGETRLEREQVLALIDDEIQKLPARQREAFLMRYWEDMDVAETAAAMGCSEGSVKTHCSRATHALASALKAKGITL
// no unit string in output, number only

Worked cases, fold repression given:
# input Provide one value: measured fold repression of AS15_524 (protein) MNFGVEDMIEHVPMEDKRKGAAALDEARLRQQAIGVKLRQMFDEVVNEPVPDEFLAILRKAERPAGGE
# output 4.17

# input Provide one value: measured fold repression of AS25_1645 (protein) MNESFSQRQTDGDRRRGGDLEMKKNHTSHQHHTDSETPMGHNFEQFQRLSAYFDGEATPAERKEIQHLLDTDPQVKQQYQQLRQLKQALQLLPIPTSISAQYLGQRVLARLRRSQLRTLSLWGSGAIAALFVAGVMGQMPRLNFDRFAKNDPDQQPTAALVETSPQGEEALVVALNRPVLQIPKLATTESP
# output 7.52

# input Provide one value: measured fold repression of AS04_1609 (protein) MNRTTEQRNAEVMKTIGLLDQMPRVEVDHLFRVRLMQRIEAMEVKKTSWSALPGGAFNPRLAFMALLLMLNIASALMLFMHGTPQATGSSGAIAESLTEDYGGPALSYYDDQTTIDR
# output 2.72

---
# input Provide one value: measured fold repression of AS37_2513 (protein) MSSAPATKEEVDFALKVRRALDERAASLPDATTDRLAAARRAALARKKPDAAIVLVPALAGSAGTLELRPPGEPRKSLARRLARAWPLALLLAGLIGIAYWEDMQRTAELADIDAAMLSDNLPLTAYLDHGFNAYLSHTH
# output 13.5
